The binders listed here are annotated with their Enzyme Activity Endpoint Assay (purified): Fab′2.
Target: pooled human IgG (human); further: test concentration or dose not given here
Assay: cell-based or functional assay
Numeric answer only, unit ng/µL assumed.

Look over these answered cases.
PRT-216 (enzyme) MEVVEVWPYGQNPNGKTEILSQTEDSESLQRLRDIEDFQAEKKKENVVYTKWLDGVDVDDHDFRKIVDGNTEYYATPLLNGRGWYDINKDFNRDSDKCAAAVAANMFHYWLDQNRDNIDRFLRQSPEKHGIIELPDGQLKLSDFLNTYESDDGYRDKSKLFDFISNNFNGPVWTDKLLDNYINGYGYNYKYGRTIEDPTKNNSKINFFKKVFNGKILTDNHSIRNYNTFSDLLSEALYTGKAIGLSYGPAGLRHSLGHIISVWGADLDADGNVVAIYVTDSDDKKLTIGDERVGLKRYKISYDDENRARLTAYEENDNTGGQIRGLETLDTGKQAWADYFDKTEQTGTDQAEQLEHHHHHH : 0
PRT-223 (enzyme) MEVVEVWPYGQNPNGKTEILSQTEDSESLQRLRDIEDFQAEKKKENVVYTKWLDGVDVKDHDFRKIVDGNIAYYATPLLNGRGFYDINKDFNRDSDKCAAAVAANMFHYWLDINRDNVDRFLRQNPEKHGIIELPDGQLKLSDFLNTYESDHGYRDKSKLFDFISNNFNGPVWTDKLLDNYINGYAYNYKYGRTIEDPTKNTSKINFFKEVFNEKILTNNHSIRNQNEFSDLLSEALYTGKAIGLSYGPAGLRHSLGHIISVWGADLDADGNVVAIYVTDSDDKKLTIGDERVGLKRYKISTDDENRLRLTAYEETHNTGGQIRGLWTLDTGKQAWADYFDKTEQTGTDQAEQLEHHHHHH : 189
PRT-202 (enzyme) MEVVEVWPYGQNPNGKTEILSQTEDSESLQRLRDIEDFQAEKKKQNVVYTKWLDGVDVKDHDFRKIVDGNIAYYATPLLNGRGFYDINKDFNRDSDKCAAAVAANMFHYWLDINRDNVDRFLRQNPEKHGIIELPDGQLKLSDFLNTYESDYGYRDKSKLFDFISNNFNGPVWTDKLLDNYINGYAYNYKYGRTIEDPTKNTSKINFFKKVFNEKILTNIHSIRNQNEFSDLLSEALYTGKAIGLSYGPAGLRHSLGHIISVWGADLDADGNVVAIYVTDSDDKKLTIGDERVGLKRYKISTDDEGRLRLTAYEETDNTGGEIRGLYTLDTGKQAWADYFDKTEQTGTDQAEQLEHHHHHH : 25
PRT-194 (enzyme) MANQEIRYSEVTPYHVTSVWTKGVTPPDHDFANFTQGEDVFHAPYVANQGWYDITKTFNGKDDLLCGAATAGNMLHWWFDQNKDQIKRYLEEHPEKQKINFNGEQMFDVKEAIDTKNHQLDSKLFEYFKEKAFPYLSTKHLGVFPDHVIDMFINGYRLSLTNHGPTPVKEGSKDPRGGIFDAVFTRGDQSKLLTSRHDFKEKNLKEISDLIKKELTEGKALGLSHTYANVRHSINHVINLWGADFDSNGNLKAIYVTDSDDKKLTISNASIGMKKYFVGVNSAGKVAISAKEIKEDNIGAQVLGLFTLSTGQDSWNQTN : 0

Prompt line: Recorded Enzyme Activity Endpoint Assay (purified): Fab′2 for PRT-224 (enzyme) MEVVEVWPYGQNPNGKTEILSQTEDSESLQRLRDIEDFQAEKKKQNVVYTKWLDGVDVKDHDFRKIVDGNIAYYATPLLNGRGFYDINKDFNRDSDKCAAAVAANMFHYWLDINRDNVDRFLRQNPEKHGIIELPDGQLKLSDFLNTYESDHGYRDKSKLFDFISNNFNGPVWTDKLLDNYINGYAYNYKYGRTIEDPTKNTSKINFFKEVFNEKILTNNHSIRNQNEFSVLLSEALYTGKAIGLSYGPAGLRHSLGHIISVWGADLDADGNVVAIYVTDSDDKKLTIGDERVGLKRYKISTDDEGRLRLTAYEETHNTGGQIRGLWTLDTGKQAWADYFDKTEQTGTDQAEQLEHHHHHH , please?
Response line: 217

Prompt line: Which Enzyme Activity Endpoint Assay (purified): Fab′2 is listed for PRT-225 (enzyme) MEVVEVWPYGQNPNGKTEILSQTEDSESLQRLRDIEDFQAEKKKENVVYTKWLDGVDVKDHDFRKIVDGNIEYYATPLLNGRGFYDINKDFNRDSDKCAAAVAANMFHYWLDINRDNVDRFLRQNPEKHGIIELPDGQLKLSDFLNTYESDHGYRDKSKLFDFISNNFNGPVWTDKLLDNYINGYAYNYKYGRTIEDPTKNTSKINFFKEVFNEKILTNNHSIRNQNEFSVLLSEALYTGKAIGLSYGPAGLRHSLGHIISVWGADLDADGNVVAIYVTDSDDKKLTIGDERVGLKRYKISTDDENRARLTAYEETDNTGGQIRGLWTLDTGKQAWADYFDKTEQTGTDQAEQLEHHHHHH ?
Response line: 0

Prompt line: What does the data say about its Enzyme Activity Endpoint Assay (purified): Fab′2? Entry: PRT-201 (enzyme) MEVVEVWPYGQNPNGKTEILSQTEDSESLQRLRDIEDFQAEKKKQNVVYTKWLDGVDVKDHDFRKIKDGNIEYYATPLLNGRGFYDINKDFNRDSDKCAAAVAANMFHYWLDRNRDNVDRFLRQNPEKHGIIELPDGQLKLSDFLNTYESDDGYRDKSKLFDFISNNFNGPVWTDKLLDNYINGYAYNYKYGRTIEDPTKNTSKINFFKEVFNEKILTNNHSIRNQNEFSVLLSEALYTGKAIGLSYGPAGLRHSLGHIISVWGADLDADGNVVAIYVTDSDDKKLTIGDERVGLKRYKISTDDEGRARLTAYEETHNTGGQIRGLYTLDTGKQAWADYFDKTEQTGTDQAEQLEHHHHHH
Response line: 0

src = patent US20250027068A1
